Ref: patent US6545182B2

molecular target: alpha 2B adrenergic receptor (Homo sapiens); construct: expressed in transfected cells; host or cells: NIH-3T3 cells, transient cotransfection by calcium phosphate; experiment: RSAT (Receptor Selection and Amplification Technology) assay, alpha 2B; type: cell-based; conditions: ratio of maximal effect to that of standard full agonist brimonidine
Sequence (P18089 whole entry): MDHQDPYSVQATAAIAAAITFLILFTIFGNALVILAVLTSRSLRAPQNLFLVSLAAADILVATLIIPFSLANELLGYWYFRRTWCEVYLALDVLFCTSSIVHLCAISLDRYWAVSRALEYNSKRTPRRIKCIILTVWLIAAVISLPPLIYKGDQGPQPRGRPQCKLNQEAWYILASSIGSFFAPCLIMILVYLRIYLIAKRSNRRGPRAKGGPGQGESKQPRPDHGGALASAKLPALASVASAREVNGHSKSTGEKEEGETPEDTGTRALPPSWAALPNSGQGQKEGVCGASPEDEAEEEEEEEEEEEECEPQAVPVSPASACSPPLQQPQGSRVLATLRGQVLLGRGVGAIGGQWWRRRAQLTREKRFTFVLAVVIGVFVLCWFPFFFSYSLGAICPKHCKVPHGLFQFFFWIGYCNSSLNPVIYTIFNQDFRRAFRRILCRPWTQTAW
Readout Label: efficacy or intrinsic activity (value in parentheses) Alpha 2B

smiles_str=COc1ccc(Cl)cc1CNC(=S)NCCO target="alpha 2B adrenergic receptor (Homo sapiens)" quantitative_readout=1.09
smiles_str=OCCNC(=S)NCc1cccc(C(F)(F)F)c1F target="alpha 2B adrenergic receptor (Homo sapiens)" quantitative_readout=0.7
smiles_str=OCCNC(=S)NCc1cc(C(F)(F)F)ccc1F target="alpha 2B adrenergic receptor (Homo sapiens)" quantitative_readout=0.8
smiles_str=Cc1ccc(Br)c(CNC(=S)NCCO)c1F target="alpha 2B adrenergic receptor (Homo sapiens)" quantitative_readout=0.8
smiles_str=OCCNC(=S)NCc1c(F)cccc1I target="alpha 2B adrenergic receptor (Homo sapiens)" quantitative_readout=1.08
smiles_str=COc1ccc(F)c(CNC(=S)NCCO)c1 target="alpha 2B adrenergic receptor (Homo sapiens)" quantitative_readout=0.91
smiles_str=OCCNC(=S)NCc1cc(Br)cc(Cl)c1F target="alpha 2B adrenergic receptor (Homo sapiens)" quantitative_readout=1.13

----------
Biological target: alpha 2C adrenergic receptor (Homo sapiens)
Construct: expressed in transfected cells; host or cells: NIH-3T3 cells, transient cotransfection by calcium phosphate
Sequence (P18825 1-462): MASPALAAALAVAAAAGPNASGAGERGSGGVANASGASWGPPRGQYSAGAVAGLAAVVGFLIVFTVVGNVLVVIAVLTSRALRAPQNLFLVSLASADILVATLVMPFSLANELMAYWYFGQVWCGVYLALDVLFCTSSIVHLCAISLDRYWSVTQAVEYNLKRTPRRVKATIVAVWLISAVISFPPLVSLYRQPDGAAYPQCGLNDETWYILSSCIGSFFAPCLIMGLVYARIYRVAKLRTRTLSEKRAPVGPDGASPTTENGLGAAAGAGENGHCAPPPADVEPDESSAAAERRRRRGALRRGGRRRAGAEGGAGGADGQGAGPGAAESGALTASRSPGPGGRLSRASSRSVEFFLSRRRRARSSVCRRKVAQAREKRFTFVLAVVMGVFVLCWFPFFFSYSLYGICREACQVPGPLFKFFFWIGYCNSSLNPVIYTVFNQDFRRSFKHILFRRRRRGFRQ
Assay: RSAT (Receptor Selection and Amplification Technology) assay, alpha 2C
Assay type: cell-based
Settings: NIH-3T3 cells cotransfected with receptor and Gq/i5
Experimental: Activity was measured using the RSAT (Receptor Selection and Amplification Technology) assay, developed by Receptor Technologies, Inc. of Winooski, Vt. […] The increase in cell number is assessed with an appropriate transfected marker gene such as β-galactosidase, the activity of which can be easily measured in a 96-well format. […] The assay is conducted as follows. […] The EC50 and maximal effect of each drug at each alpha2 receptor is determined. […]
# Lookup of reported EC50 keyed by entry
Readout Label: EC50 (nM)

molecule=OCCNC(=S)NCc1cc(I)ccc1F target="alpha 2C adrenergic receptor (Homo sapiens)" readout_label=EC50 censor_symbol== quantitative_readout=322
molecule=COc1cccc(F)c1CNC(=S)NCCO target="alpha 2C adrenergic receptor (Homo sapiens)" readout_label=EC50 censor_symbol== quantitative_readout=406
molecule=OCCNC(=S)NCc1cccc(Br)c1 target="alpha 2C adrenergic receptor (Homo sapiens)" readout_label=EC50 censor_symbol=≥ quantitative_readout=210000
molecule=OCCNC(=S)NCc1cccc(I)c1F target="alpha 2C adrenergic receptor (Homo sapiens)" readout_label=EC50 censor_symbol== quantitative_readout=23
molecule=OCCNC(=S)NCc1cc(F)ccc1O target="alpha 2C adrenergic receptor (Homo sapiens)" readout_label=EC50 censor_symbol== quantitative_readout=144
molecule=OCCNC(=S)NCc1c(F)ccc(Cl)c1F target="alpha 2C adrenergic receptor (Homo sapiens)" readout_label=EC50 censor_symbol=> quantitative_readout=2000
molecule=Cc1cc(CNC(=S)NCCO)c(F)c(F)c1F target="alpha 2C adrenergic receptor (Homo sapiens)" readout_label=EC50 censor_symbol=≥ quantitative_readout=210000
molecule=OCCNC(=S)NCc1c(F)c(F)cc(F)c1F target="alpha 2C adrenergic receptor (Homo sapiens)" readout_label=EC50 censor_symbol== quantitative_readout=2370
molecule=OCCNC(=S)NCc1ccccc1C(F)(F)F target="alpha 2C adrenergic receptor (Homo sapiens)" readout_label=EC50 censor_symbol== quantitative_readout=783
molecule=OCCNC(=S)NCc1cc(C(F)(F)F)ccc1F target="alpha 2C adrenergic receptor (Homo sapiens)" readout_label=EC50 censor_symbol== quantitative_readout=853
molecule=OCCNC(=S)NCc1ccc(F)c(Cl)c1 target="alpha 2C adrenergic receptor (Homo sapiens)" readout_label=EC50 censor_symbol=≥ quantitative_readout=210000
molecule=OCCNC(=S)NCc1ccccc1I target="alpha 2C adrenergic receptor (Homo sapiens)" readout_label=EC50 censor_symbol== quantitative_readout=226
molecule=OCCNC(=S)NCc1cccc(C(F)(F)F)c1F target="alpha 2C adrenergic receptor (Homo sapiens)" readout_label=EC50 censor_symbol== quantitative_readout=632
molecule=OCCNC(=S)NCc1cccc(OC(F)(F)F)c1 target="alpha 2C adrenergic receptor (Homo sapiens)" readout_label=EC50 censor_symbol=≥ quantitative_readout=210000
molecule=OCCNC(=S)NCc1cc(Br)c(F)c(F)c1F target="alpha 2C adrenergic receptor (Homo sapiens)" readout_label=EC50 censor_symbol=≥ quantitative_readout=210000
molecule=OCCNC(=S)NCc1cccc(Cl)c1Cl target="alpha 2C adrenergic receptor (Homo sapiens)" readout_label=EC50 censor_symbol== quantitative_readout=54.5
molecule=OCCNC(=S)NCc1c(F)ccc(F)c1Cl target="alpha 2C adrenergic receptor (Homo sapiens)" readout_label=EC50 censor_symbol== quantitative_readout=1850
molecule=Cc1ccc(CNC(=S)NCCO)cc1 target="alpha 2C adrenergic receptor (Homo sapiens)" readout_label=EC50 censor_symbol== quantitative_readout=1810
molecule=OCCNC(=S)NCc1cccc(I)c1 target="alpha 2C adrenergic receptor (Homo sapiens)" readout_label=EC50 censor_symbol== quantitative_readout=232
molecule=OCCNC(=S)NCc1c(F)cccc1I target="alpha 2C adrenergic receptor (Homo sapiens)" readout_label=EC50 censor_symbol=> quantitative_readout=2000
molecule=OCCNC(=S)NCc1cc(Br)ccc1F target="alpha 2C adrenergic receptor (Homo sapiens)" readout_label=EC50 censor_symbol== quantitative_readout=459
molecule="OCCNC(=S)NCc1cccc(Cl)c1F [drawing 20]" target="alpha 2C adrenergic receptor (Homo sapiens)" readout_label=EC50 censor_symbol== quantitative_readout=457
molecule=OCCNC(=S)NCc1c(F)cccc1C(F)(F)F target="alpha 2C adrenergic receptor (Homo sapiens)" readout_label=EC50 censor_symbol== quantitative_readout=617
molecule=Cc1ccc(Br)c(CNC(=S)NCCO)c1F target="alpha 2C adrenergic receptor (Homo sapiens)" readout_label=EC50 censor_symbol=> quantitative_readout=3000
